Tested on: Escherichia coli TOP10
assay-text: shrunken log2 fold change of peptide-encoding DNA abundance (4.5 h post-induction vs induction); higher = less antimicrobial activity (less host growth inhibition)
reported-conditions: time post-induction: 4.5 h; library: site-saturation at positions 5, 18, 19, 20
parameter: shrunken log2 fold change
# print the numeric value only

Examples from the recorded data:
| seq-text | tested-on | shrunken log2 fold change |
| --- | --- | --- |
| RRIRKRPPRLPRPRPRPRKCPRP | Escherichia coli TOP10 | 0.0121 |
| RRIRNRPPRLPRPRPRPKYKPRP | Escherichia coli TOP10 | -0.726 |
| RRIRCRPPRLPRPRPRPEDIPRP | Escherichia coli TOP10 | -0.12 |
| RRIRCRPPRLPRPRPRPEHHPRP | Escherichia coli TOP10 | -0.114 |
| RRIRVRPPRLPRPRPRPKSSPRP | Escherichia coli TOP10 | -0.0704 |

Input line: # lookup: shrunken log2 fold change of RRIRSRPPRLPRPRPRPMFFPRP
Output line: -0.274

Input line: Can you handle RRIRNRPPRLPRPRPRPQPFPRP next?
Output line: -0.0278

Input line: Can you handle RRIRRRPPRLPRPRPRPCMDPRP next?
Output line: -0.229

Input line: Can you handle RRIRFRPPRLPRPRPRPRQSPRP next?
Output line: 0.443

Input line: Can you handle RRIRARPPRLPRPRPRPGRWPRP next?
Output line: 0.609

Input line: Can you handle RRIRLRPPRLPRPRPRPQDNPRP next?
Output line: -0.428

Input line: Can you handle RRIRQRPPRLPRPRPRPQTLPRP next?
Output line: -0.319

Input line: Can you handle RRIRARPPRLPRPRPRPWMPPRP next?
Output line: -0.216

Input line: Can you handle RRIRTRPPRLPRPRPRPRDVPRP next?
Output line: 0.369

Input line: Can you handle RRIRMRPPRLPRPRPRPNYMPRP next?
Output line: 1.06

Input line: Can you handle RRIRWRPPRLPRPRPRPCIMPRP next?
Output line: -0.339

Input line: Can you handle RRIRGRPPRLPRPRPRPGIDPRP next?
Output line: 0.607

---

System: Escherichia coli TOP10;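 further: peptides expressed intracellularly from a pBAD plasmid library in pooled LB shake-flask culture, induced with 0.3% L-arabinose, DNA abundance read by NGS, three biological replicates, DESeq2 with apeglm shrinkage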
assay-text: shrunken log2 fold change of peptide-encoding DNA abundance (4.5 h post-induction vs induction); higher = less antimicrobial activity (less host growth inhibition)
reported-conditions: time post-induction: 4.5 h; library: site-saturation at positions 5, 18, 19, 20
Rule: shrunken log2 fold change of -0.05 or more gives fulfilled; anything lower gives not fulfilled.

Please review the entries below; each comes with its answer.
| seq-text | answer-label |
| --- | --- |
| RRIRTRPPRLPRPRPRPEVKPRP | fulfilled |
| RRIRFRPPRLPRPRPRPANQPRP | not fulfilled |
| RRIRERPPRLPRPRPRPGKIPRP | fulfilled |

Input line: I'd appreciate it if you could say whether RRIRCRPPRLPRPRPRPVPQPRP has shrunken log2 fold change at least equal to -0.05.
Output line: fulfilled

Input line: Can you handle RRIRYRPPRLPRPRPRPCCDPRP next?
Output line: not fulfilled

Input line: Can you handle RRIRGRPPRLPRPRPRPYDYPRP next?
Output line: not fulfilled

Input line: Can you handle RRIRCRPPRLPRPRPRPKWYPRP next?
Output line: not fulfilled

Input line: Can you handle RRIRQRPPRLPRPRPRPIPGPRP next?
Output line: not fulfilled

Input line: Can you handle RRIRARPPRLPRPRPRPSCFPRP next?
Output line: fulfilled

Input line: Can you handle RRIRIRPPRLPRPRPRPEHQPRP next?
Output line: fulfilled

Input line: Can you handle RRIRARPPRLPRPRPRPEANPRP next?
Output line: fulfilled

Input line: Can you handle RRIRTRPPRLPRPRPRPQKNPRP next?
Output line: not fulfilled

Input line: Can you handle RRIRIRPPRLPRPRPRPCGDPRP next?
Output line: fulfilled

Input line: Can you handle RRIRDRPPRLPRPRPRPCYTPRP next?
Output line: not fulfilled

Input line: Can you handle RRIRSRPPRLPRPRPRPYARPRP next?
Output line: not fulfilled

Input line: Can you handle RRIRPRPPRLPRPRPRPHKGPRP next?
Output line: fulfilled

Input line: Can you handle RRIRSRPPRLPRPRPRPWFYPRP next?
Output line: not fulfilled

Input line: Can you handle RRIRFRPPRLPRPRPRPVGQPRP next?
Output line: fulfilled

Input line: Can you handle RRIRCRPPRLPRPRPRPEMAPRP next?
Output line: fulfilled

Input line: Can you handle RRIRDRPPRLPRPRPRPLLLPRP next?
Output line: fulfilled

Input line: Can you handle RRIRIRPPRLPRPRPRPGPMPRP next?
Output line: fulfilled
